Source of measurements: patent US11566007B2

Target: KRAS G12D (Homo sapiens (Human), UniProt P01116+P62937, G12D)
Sequence (P01116-2 other isoform, or with tags, fused parts or gaps G12D): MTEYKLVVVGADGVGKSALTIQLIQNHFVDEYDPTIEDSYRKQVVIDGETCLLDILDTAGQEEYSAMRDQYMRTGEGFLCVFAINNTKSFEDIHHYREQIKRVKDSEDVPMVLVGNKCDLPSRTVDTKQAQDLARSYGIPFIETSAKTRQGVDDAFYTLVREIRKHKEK
Sequence (P62937 whole entry): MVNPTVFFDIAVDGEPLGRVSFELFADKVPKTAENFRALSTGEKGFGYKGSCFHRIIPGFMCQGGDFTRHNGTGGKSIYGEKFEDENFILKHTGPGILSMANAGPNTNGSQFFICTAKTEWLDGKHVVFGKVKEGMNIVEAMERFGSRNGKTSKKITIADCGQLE
Assay: Ras-Raf (BRAF RBD) disruption / FRET / MOA assay, KRAS G12D
Format: biochemical
Conditions: Ras-Raf disruption/FRET/MOA assay; class symbols; read-out: KRAS G12D FRET data IC50
Experimental: The purpose of this biochemical assay is to measure the ability of test compounds to facilitate ternary complex formation between a nucleotide-loaded Ras isoform and cyclophilin A; the resulting ternary complex disrupts binding to a BRAF^RBD construct, inhibiting Ras signaling through a RAF effector. Compound is present in plate wells as a 10-point 3-fold dilution series starting at a final concentration of 30 μM. […]
pIC50: −log10 of the molar value.
measured.metric: pIC50

Here is how some compounds turned out for pIC50.
compound | measured.metric | observed
C=CC(=O)N1CC[C@H](C(=O)N(C)[C@H](C(=O)N[C@H]2Cc3cc(O)cc(c3)-c3ccc4c(c3)c(c(-c3ccccc3[C@H](C)OC)n4CC)CC(C)(C)COC(=O)[C@@H]3CCCN(N3)C2=O)C(C)C)C1 | pIC50 | 5.00 to 6.00
CCn1c(-c2cccnc2[C@H](C)OC)c2c3cc(ccc31)-c1nc(cs1)C[C@H](NC(=O)[C@H](C(C)C)N(C)C(=O)[C@H]1CCN(C(=O)C#CC(C)(C)N3CCC3)C1)C(=O)N1CCC[C@H](N1)C(=O)OCC(C)(C)C2 (atropisomer, axis not shown) | pIC50 | 5.00 to 6.00
CCn1c(-c2cccnc2[C@H](C)OC)c2c3cc(ccc31)-c1cc(O)cc(c1)C[C@H](NC(=O)[C@H](C(C)C)N(C)C(=O)N1CCN(C(=O)/C=C/CN(C)C)CC1)C(=O)N1CCC[C@H](N1)C(=O)OCC(C)(C)C2 (atropisomer, axis not shown) | pIC50 | 6.00 to 7.00
CCn1c(-c2cccnc2[C@H](C)OC)c2c3cc(ccc31)N1CCO[C@@H](C[C@H](NC(=O)[C@@H](COC3CN(C(=O)C#CC(C)(C)N(C)C)C3)C(C)C)C(=O)N3CCC[C@H](N3)C(=O)OCC(C)(C)C2)C1 (atropisomer, axis not shown) | pIC50 | < 5.00
CCn1c(-c2cccnc2[C@H](C)OC)c2c3cc(ccc31)N1CCC[C@@H](C[C@H](NC(=O)[C@H](C(C)C)N(C)C(=O)[C@H]3CCN(C(=O)C#CC(C)(C)N4CCC4)C3)C(=O)N3CCC[C@H](N3)C(=O)OCC(C)(C)C2)C1 (atropisomer, axis not shown) | pIC50 | < 5.00
C=CC(=O)N1CC2(CCN([C@H](C(=O)N[C@H]3Cc4cc(O)cc(c4)-c4ccc5c(c4)c(c(-c4cccnc4[C@H](C)OC)n5CC)CC(C)(C)COC(=O)[C@@H]4CCCN(N4)C3=O)C(C)C)C2=O)C1 (atropisomer, axis not shown) | pIC50 | 6.00 to 7.00

Shifting focus to the compound that follows.
Measured pIC50 of CO[C@@H](C)c1ncccc1-c1c2c3cc(ccc3n1CC(F)(F)F)-c1csc(n1)C[C@H](NC(=O)[C@H](C(C)C)N(C)C(=O)N1CCN(C(=O)/C=C/CN(C)C)C3(CC3)C1)C(=O)N1CCC[C@H](N1)C(=O)OCC(C)(C)C2 (atropisomer, axis not shown) : 7.00 to 8.00
